# EC50 listing for each entry below
- TARGET_UNDER_TEST: UniProt Q14145
- Sequence (Q14145 whole entry): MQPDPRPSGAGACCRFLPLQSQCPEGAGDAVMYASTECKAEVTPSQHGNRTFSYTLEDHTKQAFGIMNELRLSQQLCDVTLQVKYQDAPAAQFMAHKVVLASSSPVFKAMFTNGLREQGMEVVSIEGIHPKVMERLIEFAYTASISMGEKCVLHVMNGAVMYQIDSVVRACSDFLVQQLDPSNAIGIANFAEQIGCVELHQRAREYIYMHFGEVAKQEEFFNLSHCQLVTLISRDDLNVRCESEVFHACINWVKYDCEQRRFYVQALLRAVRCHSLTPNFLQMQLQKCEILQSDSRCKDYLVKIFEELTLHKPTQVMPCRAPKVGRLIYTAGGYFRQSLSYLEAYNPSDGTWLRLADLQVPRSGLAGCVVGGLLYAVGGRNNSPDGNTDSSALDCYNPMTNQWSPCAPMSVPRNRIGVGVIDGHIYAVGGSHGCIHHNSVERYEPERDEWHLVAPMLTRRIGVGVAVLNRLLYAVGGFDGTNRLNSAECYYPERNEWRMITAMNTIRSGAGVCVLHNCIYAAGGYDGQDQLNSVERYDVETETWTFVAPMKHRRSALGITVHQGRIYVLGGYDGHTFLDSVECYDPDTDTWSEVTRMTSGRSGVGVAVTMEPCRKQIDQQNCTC
- RUN_DESCRIPTION: HEK293 ARE luciferase assay
- CONDITION_LABEL: HEK-293 ARE firefly luciferase transiently transfected cells; 18 h incubation; mean of 1 to 20 individual measurements
OUTCOME_MEASURE: EC50 (nM)

compound="COc1cncc(-c2cc(F)cnc2C2(OC)C=C(C#N)C(=O)C(C)(C)C2)c1 (single isomer, unassigned) [Compound 237]" readout_units=nM measurement=20
compound="COC1(c2ncccc2C(F)F)C=C(C#N)C(=O)C2(CC2)C1 (stereo not drawn) [Compound 132]" readout_units=nM measurement=150
compound="COC1(c2ncc(F)cc2-c2cncc(C(F)(F)F)c2)C=C(C#N)C(=O)C(C)(C)C1 (stereo not drawn) [Compound 186]" readout_units=nM measurement=75
